The measured values listed here are drawn from ChEMBL document CHEMBL1201862.

I'd be grateful if you could share measured GI50 for these entries.
Tested on: SK-MEL-28
Test: NCI tumour cell line growth inhibition, 48 h
The source made the active and inactive calls. No stated cut-off is given here; in the data, active = GI50 up to about 1.1 µM and inactive = higher. Where a SMILES comes first, the peptide text is derived from it. [ ]: non-standard residue; d: D form. The star is where a group is joined. Cbz = O=C(OCc1ccccc1)*; Aib = CC(C)(N)C(=O)O; OBn = c1ccc(CO*)cc1

Fill in the blank: the reported GI50 of `COc1ccc2c(C=O)c3n(c(=O)c2c1OC)CCc1cc2c(cc1-3)OCO2` is ____.
> 100 µM (inactive)

Now consider C/C(=N\NC(N)=O)C(CN1CCCCC1)C(c1ccccc1)c1c(O)c2ccccc2oc1=O (configuration not stated) .
> 100 µM (inactive)

Now consider `O=C(/C=C/c1ccc(Cl)c(Cl)c1)c1ccc(F)cc1` .
18.6 µM (inactive)

Now consider CC(C)C(Nc1c2ccccc2[n+]([O-])c2ccccc12)C(=O)O (configuration not stated) .
43.1 µM (inactive)

Now consider C=CCCCCCCCCCP(=O)(c1ccccc1)c1ccc2c(c1)OCCOCCOCCOCCO2 (configuration not stated) .
16.3 µM (inactive)

Now consider `CCOC(=O)c1c(Br)c(-c2ccc(Br)cc2)c(Br)n1C` .
15.3 µM (inactive)

Now consider `CN(C)CCCNC(=O)c1cccc2nc3ccccc3nc12` .
19.2 µM (inactive)

Now consider `CCOC(=O)C(C(=O)OCC)=C1C=C(c2ccccc2)c2ccccc21` .
> 100 µM (inactive)

Now consider `COc1ccc2c(c1)-c1nc(=S)n(CCN(C)C)c3ccc([N+](=O)[O-])c(c13)N2` .
1.44 µM (inactive)

Now consider NC(CCCNCc1ccccc1O)C(=O)O (configuration not stated) .
> 100 µM (inactive)

Now consider `COc1c(C)c(OC)c(C(=O)CC(C)C)c(OC)c1C` .
> 100 µM (inactive)

Now consider `CN(c1ccccc1)S(=O)(=O)c1ccccc1[N+](=O)[O-]` .
> 100 µM (inactive)

Now consider `COC(=O)C#CC1(O)C=CC(=O)C=C1` .
0.579 µM (active)

Now consider `CNC(=O)/C(=C/c1ccc(OC)cc1)c1cc(OC)c(OC)c(OC)c1` .
2.77 µM (inactive)

Now consider `COc1ccc(Oc2nc(C#CC(C)(C)O)nc(Oc3ccc(OC)cc3)n2)cc1` .
4.9 µM (inactive)

Now consider `Cc1ccc2c(=O)c(-c3nnc(N)s3)c[nH]c2n1` .
> 100 µM (inactive)

Now consider CC(=O)OCC1OC(O[C@@H]2C[C@H]3C(C)(C)[C@H](OC(C)=O)CC[C@]3(C)[C@H]3CC[C@]4(C)C(=CC[C@H]4[C@@H](C)C[C@@H](O)[C@H](O)C(C)(C)O)[C@@]32C)C(O)C(O)C1O (some centres not stated) .
15.9 µM (inactive)

Now consider `N#CCN(Cc1ccccc1)[C@@H]1CCC[C@]1(O)C#Cc1ccc2c(c1)OCO2` .
17.1 µM (inactive)

Now consider `Cc1c(-c2ccccc2)c(C#N)c2nnn(-c3ccc(Cl)cc3)c(=O)n12` .
> 100 µM (inactive)

Now consider C[C@@H]1CC[C@@]2(OC1)O[C@H]1[C@@H](O)[C@H]3[C@@H]4CC[C@H]5C[C@@H](O[C@@H]6O[C@H](CO)[C@H](O[C@@H]7O[C@H](CO)C(O)[C@H](O[C@@H]8OC[C@@H](O)[C@H](O)[C@H]8O)[C@H]7O[C@@H]7O[C@H](CO)[C@H](O)[C@H](O[C@@H]8O[C@H](CO)[C@@H](O)[C@H](O)[C@H]8O)[C@H]7O)[C@H](O)[C@H]6O)[C@H](O)C[C@]5(C)[C@H]4CC[C@]3(C)[C@H]1[C@@H]2C (some centres not stated) .
2.61 µM (inactive)

Now consider `Cc1nc(O)nc2nc3ccc(Cl)cc3c(NC(C)(CO)CO)c12` .
> 100 µM (inactive)

Now consider CC(NC(=O)C(C)(C)NC(=O)C(CC(=O)OCc1ccccc1)NC(=O)OCc1ccccc1)C(N)=O (configuration not stated) (Cbz-Asp(OBn)-[Aib]-Ala-NH2; configuration not given here) .
> 100 µM (inactive)

Now consider `O=C(NCCO)c1ccc([N+](=O)[O-])cc1` .
> 100 µM (inactive)

Now consider CC(=O)Nc1cccc(N2C(=O)/C(=C\c3cccc(Oc4ccccc4)c3)S(=O)(=O)C2c2ccccc2)c1 (configuration not stated) .
> 100 µM (inactive)

Now consider `CC[P+](C#Cc1ccccc1)(c1ccccc1)c1ccccc1` .
1.95 µM (inactive)

Now consider `O=C(/C=C/c1ccc2c(c1)OCO2)NCCc1ccco1` .
> 100 µM (inactive)

Now consider `Cc1cc(N(CCC#N)CCC#N)ccc1/C=C(/NC(=O)/C=C/c1ccccc1)C(N)=O` .
> 100 µM (inactive)

Now consider `O=S(=O)(O)SCCNCCCCCC1CCCCC1` .
4.26 µM (inactive)

Now consider `COCOCCC#CCO` .
> 100 µM (inactive)

Now consider CCN(CC)CCN1CCc2c([nH]c3ccccc23)C1c1cccnc1 (configuration not stated) .
> 100 µM (inactive)

Now consider CC(=O)NC1C(OCc2ccccc2)OC(CO)C(O)C1OCC(=O)N[C@@H](C)C(=O)N[C@H](CCC(=O)NCCCCNc1c2ccccc2nc2cccc([N+](=O)[O-])c12)C(N)=O (some centres not stated) .
4.5 µM (inactive)

Now consider `CCOC(=O)NC(Nc1c(F)c(F)c(F)c(F)c1F)(C(F)(F)F)C(F)(F)F` .
> 100 µM (inactive)

Now consider `COc1ccc(C2=Nc3ccccc3N=C(SC)C2)cc1` .
> 100 µM (inactive)

Now consider `CCOc1ccncc1[N+](=O)[O-]` .
> 100 µM (inactive)

Now consider `O=c1c(C(c2ccc3ccccc3c2)c2c(O)oc3cc(O)ccc3c2=O)c(O)oc2cc(O)ccc12` .
> 100 µM (inactive)

Now consider `Cc1ccc(NC(=O)CC/C(CC(=O)C(C)(C)C)=N/NC(=O)C[N+](C)(C)C)cc1C` .
> 100 µM (inactive)

Now consider `COC(=O)c1c/c(=N\NC(=O)CC(=O)Nc2ccc(C)cc2)c2ccccc2o1` .
> 100 µM (inactive)
